target: human CB1R (Homo sapiens (Human), UniProt P21554); assay: CB1 cAMP (Assay 2): in vitro testing of CB1 potency; conditions: CHO cells expressing human CB1R; inhibition of forskolin-stimulated cAMP
Sequence (P21554 whole entry): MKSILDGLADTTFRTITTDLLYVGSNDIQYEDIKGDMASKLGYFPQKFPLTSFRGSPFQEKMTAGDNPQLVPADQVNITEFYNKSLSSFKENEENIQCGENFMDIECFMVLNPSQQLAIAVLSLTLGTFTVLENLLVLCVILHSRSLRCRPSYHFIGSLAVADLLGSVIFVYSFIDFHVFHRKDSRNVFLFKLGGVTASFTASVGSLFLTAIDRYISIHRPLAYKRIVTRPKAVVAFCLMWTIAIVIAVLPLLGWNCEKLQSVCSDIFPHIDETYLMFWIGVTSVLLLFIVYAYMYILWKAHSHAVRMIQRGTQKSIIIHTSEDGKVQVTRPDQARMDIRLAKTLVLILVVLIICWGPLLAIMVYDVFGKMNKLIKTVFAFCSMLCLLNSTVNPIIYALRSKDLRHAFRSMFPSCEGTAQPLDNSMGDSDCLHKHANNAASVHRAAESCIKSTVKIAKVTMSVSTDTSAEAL
Quantity: IC50 (µM)
Numbers only, in µM.

For every record below, what is its IC50?
1. CC(C)(C#N)c1cc(NC(=O)C(C)(C)S(=O)(=O)CCCC(F)(F)F)on1
2. COCC(C)(C)c1cc(NC(=O)C(C)(C)S(=O)(=O)CC2CCOCC2)on1

result:
[104, 8.6]

----------
target: human CB1R (Homo sapiens (Human), UniProt P21554); assay: CB1 cAMP (Assay 2): in vitro testing of CB1 potency; details: CHO cells expressing human CB1R; inhibition of forskolin-stimulated cAMP
Quantity: pIC50
One number for each entry, as −log10 of the molar value.

[
  {
    "Structure smiles string": "CN(CC1CCOCC1)C(C)(C)C(=O)Nc1nnc(C(C)(C)CO)s1",
    "Tested system": "human CB1R (Homo sapiens (Human), UniProt P21554)",
    "Test value": 3.92
  },
  {
    "Structure smiles string": "CN(C1CCN(S(C)(=O)=O)CC1)C(C)(C)C(=O)Nc1nnc(C(C)(C)C#N)s1",
    "Tested system": "human CB1R (Homo sapiens (Human), UniProt P21554)",
    "Test value": 4.16
  },
  {
    "Structure smiles string": "CN(CC1CCOCC1)C(C)(C)C(=O)Nc1cc(C(C)(C)CO)no1",
    "Tested system": "human CB1R (Homo sapiens (Human), UniProt P21554)",
    "Test value": 5.09
  },
  {
    "Structure smiles string": "COCC(C)(C)c1cc(NC(=O)C(C)(C)S(=O)(=O)C2CCOCC2)on1",
    "Tested system": "human CB1R (Homo sapiens (Human), UniProt P21554)",
    "Test value": 4.30
  },
  {
    "Structure smiles string": "CC(C)(CO)c1cc(NC(=O)C(C)(C)S(=O)(=O)C2CCOCC2)on1",
    "Tested system": "human CB1R (Homo sapiens (Human), UniProt P21554)",
    "Test value": 3.82
  },
  {
    "Structure smiles string": "CN(CC1CCOCC1)C(C)(C)C(=O)Nc1cc(C(C)(C)C#N)no1",
    "Tested system": "human CB1R (Homo sapiens (Human), UniProt P21554)",
    "Test value": 4.40
  },
  {
    "Structure smiles string": "CC(C)(CO)c1cc(NC(=O)C(C)(C)S(=O)(=O)CCCC(F)(F)F)on1",
    "Tested system": "human CB1R (Homo sapiens (Human), UniProt P21554)",
    "Test value": 4.55
  },
  {
    "Structure smiles string": "CN(C1CCN(S(C)(=O)=O)CC1)C(C)(C)C(=O)Nc1cc(C(C)(C)CO)no1",
    "Tested system": "human CB1R (Homo sapiens (Human), UniProt P21554)",
    "Test value": 5.51
  },
  {
    "Structure smiles string": "CN(C1CCN(S(C)(=O)=O)CC1)C(C)(C)C(=O)Nc1cc(C(C)(C)C#N)no1",
    "Tested system": "human CB1R (Homo sapiens (Human), UniProt P21554)",
    "Test value": 5.60
  },
  {
    "Structure smiles string": "CC(C)(O)c1cc(NC(=O)C(C)(C)S(=O)(=O)CCCC(F)(F)F)on1",
    "Tested system": "human CB1R (Homo sapiens (Human), UniProt P21554)",
    "Test value": 4.59
  }
]

Here's the next entry for you.
query: What does the record list as pIC50 for `COCC(C)(C)c1cc(NC(=O)C(C)(C)N(C)CC2CCOCC2)on1` ?
result: 6.03

----------
target: human CB1R (Homo sapiens (Human)); assay: CB1 cAMP (Assay 2): in vitro testing of CB1 potency; conditions: CHO cells expressing human CB1R; inhibition of forskolin-stimulated cAMP
Quantity: IC50

[
  {
    "Molecule": "CC(C)(O)c1cc(NC(=O)C(C)(C)S(=O)(=O)C2CCOCC2)on1 [Example 133 WO2010036630]",
    "Tested system": "human CB1R (Homo sapiens (Human))",
    "IC50": "> 200 µM"
  },
  {
    "Molecule": "CC(C)(C#N)c1cc(NC(=O)C(C)(C)S(=O)(=O)CC2CCOCC2)on1 [Example 2]",
    "Tested system": "human CB1R (Homo sapiens (Human))",
    "IC50": "> 200 µM"
  }
]

query: Requested field: IC50. Item: CC(C)(C#N)c1cc(NC(=O)C(C)(C)S(=O)(=O)C2CCOCC2)on1 [Example 3]
result: > 200 µM
